# studyTarget: BTK (Homo sapiens (Human), UniProt Q06187)
# Sequence (Q06187 whole entry): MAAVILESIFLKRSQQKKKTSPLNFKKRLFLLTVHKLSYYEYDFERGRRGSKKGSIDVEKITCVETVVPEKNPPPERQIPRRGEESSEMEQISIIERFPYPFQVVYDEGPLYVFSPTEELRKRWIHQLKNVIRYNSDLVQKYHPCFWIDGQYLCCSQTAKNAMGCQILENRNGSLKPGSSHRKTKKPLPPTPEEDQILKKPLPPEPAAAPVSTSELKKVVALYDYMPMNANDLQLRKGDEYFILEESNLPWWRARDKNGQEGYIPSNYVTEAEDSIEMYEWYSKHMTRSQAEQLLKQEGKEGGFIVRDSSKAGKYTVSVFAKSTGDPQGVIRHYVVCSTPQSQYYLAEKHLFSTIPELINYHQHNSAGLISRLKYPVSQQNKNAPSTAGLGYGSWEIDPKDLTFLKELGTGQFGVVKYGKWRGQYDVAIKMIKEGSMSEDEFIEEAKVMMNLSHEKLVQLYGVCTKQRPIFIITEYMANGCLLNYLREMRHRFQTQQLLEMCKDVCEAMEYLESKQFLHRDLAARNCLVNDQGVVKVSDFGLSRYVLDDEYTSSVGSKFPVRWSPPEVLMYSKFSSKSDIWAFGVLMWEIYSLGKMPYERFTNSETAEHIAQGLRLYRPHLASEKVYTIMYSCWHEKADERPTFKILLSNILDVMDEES
# assayRemarks: Btk in vitro inhibitory activity (one of Method A TR-FRET, Method B electrophoretic mobility shift, Method C radiometric filter binding)
# Format: biochemical
# measurementParameters: determined using one of the methods of Example 355a, 355b and 355c; read-out: BTK IC50
pIC50: −log10 of the molar value.
measureName: pIC50

chemSmiles	studyTarget	pIC50
COc1ccc(C(=O)N[C@@H]2CCCN(c3cnc(C(N)=O)c(Nc4ccc(C5CCN(C)CC5)cc4)n3)C2)cc1	BTK (Homo sapiens (Human), UniProt Q06187)	> 8.00

Request the reported pIC50 associated with COc1ccc(C(=O)N[C@@H]2CCCN(c3cnc(C(N)=O)c(Nc4ccc(N5CCOCC5)c(F)c4)n3)C2)cc1
> 8.00

Lookup CN(C)C(=O)N[C@@H]1CCCN(c2nnc(C(N)=O)c(Nc3ccc(C(=O)N4CCOCC4)cc3)n2)C1
7.00 to 8.00

Lookup CN(C)C(=O)N[C@@H]1CCCN(c2cnc(C(N)=O)c(Nc3ccc(C4CCNCC4)cc3)n2)C1
> 8.00

---

Parameter IC50: see the listing below.
# studyTarget: BTK (Homo sapiens (Human))
# assayRemarks: Btk in vitro inhibitory activity (one of Method A TR-FRET, Method B electrophoretic mobility shift, Method C radiometric filter binding)
# Assay type: biochemical
# measurementParameters: determined using one of the methods of Example 355a, 355b and 355c; read-out: BTK IC50

Known IC50 results, listed for orientation:
compound	IC50
CN(C(=O)N[C@@H]1CCCN(c2cnc(C(N)=O)c(NC3CC3)n2)C1)c1cc(Cl)cc(C(F)(F)F)c1 [Example 352]	1000 to 10000 nM
CCC(=O)N[C@@H]1CCCN(c2nnc(C(N)=O)c(Nc3ccc(C4CCN(C5CCCC5)CC4)cc3)n2)C1 [Example 330]	< 10 nM
CC(C)(C)c1ccc(C(=O)N2CCC[C@@H](Nc3nnc(C(N)=O)c(Nc4ccc(C(=O)N5CCOCC5)cc4)n3)C2)cc1 [Example 62]	10 to 100 nM

Query for BTK (Homo sapiens (Human)): what IC50 does the record show for CN1CCCN([C@@H]2CCCN(c3cnc(C(N)=O)c(Nc4ccc(C5(C)CCN(C6CC6)CC5)cc4)n3)C2)C1=O [Example 285] ?
< 10 nM

Lookup CN(C)C(=O)N[C@@H]1CCCN(c2cnc(C(N)=O)c(Nc3ccc(C4CCN(C(=O)C5CC5)CC4)cc3)n2)C1 [Example 171]
< 10 nM

Lookup CN(C)C(=O)N[C@@H]1CCCN(c2cnc(C(N)=O)c(Nc3ccc(C4CCN(C(=O)N(C)C)CC4)cc3)n2)C1 [Example 170]
< 10 nM

Lookup CN(C)C/C=C/C(=O)N1CCC[C@@H](N(C)c2cnc(C(N)=O)c(Nc3ccc(C(=O)N4CCOCC4)cc3)n2)C1 [Example 75]
< 10 nM

---

# studyTarget: BTK (Homo sapiens (Human))
# assayRemarks: Btk in vitro inhibitory activity (one of Method A TR-FRET, Method B electrophoretic mobility shift, Method C radiometric filter binding)
# Type: biochemical
# measurementParameters: determined using one of the methods of Example 355a, 355b and 355c; read-out: BTK IC50
pIC50: −log10 of the molar value.
measureName: pIC50

Known pIC50 results, listed for orientation:
compound	pIC50
COc1ccc(NC(=O)N[C@@H]2CCCN(c3nnc(C(N)=O)c(Nc4ccc(C(=O)N5CCOCC5)cc4)n3)C2)cc1 [Example 80]	7.00 to 8.00
C[C@H]1[C@H](NC(=O)N(C)C)CCCN1c1cnc(C(N)=O)c(Nc2ccc(C3CCN(C4CCCC4)CC3)cc2)n1 [Example 233]	6.00 to 7.00
CN(C/C=C/C(=O)N1CCC[C@@H](N(C)c2cnc(C(N)=O)c(Nc3ccc(C(=O)N4CCOCC4)cc3)n2)C1)C1CC1 [Example 156]	> 8.00
CN1CCC(c2ccc(Nc3nc(N4CCC[C@@H](NC(=O)N5CCCCC5)C4)cnc3C(N)=O)cc2)CC1 [Example 147]	> 8.00
NC(=O)c1ncc(N2CCC[C@@H](N3CCN(C4CC4)C3=O)C2)nc1Nc1ccc(C2CCN(C3CCC3)CC2)cc1 [Example 278]	> 8.00
CCN1CCN([C@@H]2CCCN(c3cnc(C(N)=O)c(Nc4ccc(C5CCN(C6CCCC6)CC5)cc4)n3)C2)C1=O [Example 275]	> 8.00
NC(=O)c1nnc(N2CCC[C@@H](NC(=O)c3ccc4ccccc4n3)C2)nc1Nc1ccc(C(=O)N2CCOCC2)cc1 [Example 84]	7.00 to 8.00
NC(=O)c1ncc(N2CCC[C@@H](NC(=O)c3cccc(Cl)c3)C2)nc1Nc1ccc(C2CCN(C3CC3)CC2)cc1 [Example 312]	> 8.00

Request the reported pIC50 associated with COc1ccc(C(=O)N[C@@H]2CCCN(c3cnc(C(N)=O)c(Nc4ccc5ncsc5c4)n3)C2)cc1 [Example 121]
7.00 to 8.00

Lookup CCN(C)C(=O)N[C@@H]1CCCN(c2cnc(C(N)=O)c(Nc3ccc(C4CCN(C5CCCC5)CC4)cc3)n2)C1 [Example 297]
> 8.00

Lookup COc1cc(Nc2nc(N3CCC[C@@H](NC(=O)N(C)C)C3)cnc2C(N)=O)ccc1C [Example 183]
6.00 to 7.00

Lookup N#CCC(=O)N1CCC(c2ccc(Nc3nc(N4CCC[C@@H](NC(=O)N5CCCCC5)C4)cnc3C(N)=O)cc2)CC1 [Example 150]
> 8.00

Lookup NC(=O)c1nnc(N2CC[C@@H](NC(=O)C(F)(F)F)C2)nc1Nc1ccc(C(=O)N2CCOCC2)cc1 [Example 51]
6.00 to 7.00
